- Measurement Description: chemical genetic growth profiling, strain panel (AID 1159580);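 note: tested at 20 µM; growth read once vehicle control cultures reached saturation at 30 °C; 1 = growth at the plate median or of vehicle wells; lower values mean less growth of the strain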
- Condition Description: S. cerevisiae deletion strains, growth OD, locus YML032C, strain rad52, active compounds read low
Screen size: about 5,500 compounds; about 2,000 (36%) were called active. Not shown: some 18% with an inconclusive outcome. The list shows a part of the results.
Could you please report measured normalized growth for the items listed next?

Study these solved cases before continuing.
Compound: Nc1nc(=S)c2[nH]cnc2[nH]1
normalized growth: 0.996 (inactive)
--
Compound: C=C1C2CC[C@@]3(C)[C@H](c4ccoc4)OC(=O)C[C@]13O[C@H]1CC(=O)C(C)(C)[C@H](C(OC(C)=O)C(=O)OC)[C@@]21C (stereo partly drawn)
normalized growth: 1.01 (inactive)
--
Compound: CCC(C)C(=O)O[C@@H]1C[C@@]2(C)[C@H](c3ccoc3)OC(=O)CC23OC2(C)O[C@]14[C@]1(C)[C@@H](CC(=O)OC)C5(C)CC1(O)[C@](O)(C5OC(=O)C1(C)OC1C)[C@@H](OC(C)=O)[C@]34O2 (stereo partly drawn)
normalized growth: 1.01 (inactive)

Value sought for every listed compound: normalized growth.
1. CN1C2CCC1CC(OC(c1ccccc1)c1ccccc1)C2 (stereo not drawn)
2. COc1cc2c(cc1OC)C(=O)c1ccc(OC)c(OC)c1OCC(=O)C2
3. COC(=O)CC1C2(C)CC34OC5(C)OC6(C7/C(=C(/O)C(C)C)C(=O)OC(c8ccoc8)C7(C)C(OC(=O)C(C)C)C(OC)C6(O5)C13C)C(OC)C4(OC)C2OC(C)=O (stereo not drawn)
4. O=C(O)/C=C/c1ccc(O)c(O)c1
5. O=C1CCC(N2C(=O)c3ccccc3C2=O)C(=O)N1 (stereo not drawn)

[A]
1. 0.979 (inactive)
2. 1.03 (inactive)
3. 0.985 (inactive)
4. 0.998 (inactive)
5. 0.979 (inactive)

* * *

- Measurement Description: chemical genetic growth profiling, strain panel (AID 1159580)
- Condition Description: S. cerevisiae deletion strains, growth OD, locus YMR125W, strain sto1
The whole screen tested about 5,500 compounds, of which about 2,000 (36%) were called active. About 18% were inconclusive and are not listed. Rule as the data show it: active = normalized growth mostly below about 0.91 (no sharp cut-off); inconclusive = no clear call, values can overlap the other calls; inactive = mostly above about 0.92. Some of the results follow.
Write down one outcome, taken from 1 for active, 0 for inactive

Molecule: COc1ccc(C(=O)O)cc1OC
Assigned Category: 0
//
Molecule: N=c1ccn2c(n1)OC1C(O)C(CO)OC12 (configuration not stated)
Assigned Category: 0
//
Molecule: CCCCCCCCCCCCCc1ccco1
Assigned Category: 0
//
Molecule: CCCCC/C=C/CCC(=O)N[C@H]1[C@H](Oc2c3cc4cc2Oc2ccc(cc2Cl)[C@@H](O[C@@H]2O[C@H](CO)[C@@H](O)[C@H](O)[C@H]2NC(C)=O)[C@@H]2NC(=O)[C@H](NC(=O)[C@@H]4NC(=O)[C@H]4NC(=O)C(Cc5ccc(c(Cl)c5)O3)NC(=O)[C@H](N)c3ccc(O)c(c3)Oc3cc(O)cc4c3)c3ccc(O)c(c3)-c3c(OC4O[C@H](CO)[C@@H](O)[C@H](O)[C@@H]4O)cc(O)cc3[C@@H](C(=O)O)NC2=O)O[C@H](CO)[C@@H](O)[C@@H]1O (some centres not stated)
Assigned Category: 0
//
Molecule: O=C(O[C@@H]1Cc2c(O)cc(O)cc2O[C@@H]1c1cc(O)c(O)c(O)c1)c1cc(O)c(O)c(O)c1
Assigned Category: 0

[Q] Tell me the recorded outcome of this test for CCN(CC)Cc1ccc(Nc2ccnc3cc(Cl)ccc23)cc1O .
[A] 0

[Q] Tell me the recorded outcome of this test for COc1ccc2c(c1)OC/C(=C\c1ccc(OC)c(O)c1)C2=O .
[A] 1

[Q] Tell me the recorded outcome of this test for COc1ccc(CN(CCN(C)C)c2ccccn2)cc1 .
[A] 0

[Q] Tell me the recorded outcome of this test for Cc1ccc(S(=O)(=O)NC(=O)NN2CCCCCC2)cc1 .
[A] 0

[Q] Tell me the recorded outcome of this test for CC1(O)CC2C(CC1O)C2(C)C (configuration not stated) .
[A] 0

[Q] Tell me the recorded outcome of this test for O=C(Oc1cc(O)cc2c1C[C@@H](OC(=O)c1cc(O)c(O)c(O)c1)[C@@H](c1cc(O)c(O)c(O)c1)O2)c1cc(O)c(O)c(O)c1 .
[A] 0

[Q] Tell me the recorded outcome of this test for O=C(O[C@@H]1Cc2c(O)cc(O)cc2O[C@@H]1c1ccc(O)c(O)c1)c1cc(O)c(O)c(O)c1 .
[A] 1

[Q] Tell me the recorded outcome of this test for CC(=O)Oc1cc(OC(C)=O)c2c(c1)O[C@H](c1ccc(OC(C)=O)c(OC(C)=O)c1)[C@H](OC(C)=O)C2 .
[A] 0

[Q] Tell me the recorded outcome of this test for CCCCNC(=O)NS(=O)(=O)c1ccc(C)cc1 .
[A] 0

[Q] Tell me the recorded outcome of this test for COC(=O)/C=C/C(C)=C/C=C/C(C)=C/C=C/C=C(C)/C=C/C=C(C)/C=C/C(=O)O .
[A] 0

[Q] Tell me the recorded outcome of this test for CC(=O)Oc1cc(OC(C)=O)c2c(c1)O[C@H](c1ccc(OC(C)=O)c(OC(C)=O)c1)[C@@H](OC(C)=O)C2 .
[A] 0

[Q] Tell me the recorded outcome of this test for C=CCc1ccc(O)c(OC)c1 .
[A] 0

[Q] Tell me the recorded outcome of this test for C=CCc1ccc(OC)cc1 .
[A] 0

[Q] Tell me the recorded outcome of this test for CN(C)CCN(Cc1cccs1)c1ccccn1 .
[A] 0

[Q] Tell me the recorded outcome of this test for COc1cc([C@@H]2c3cc4c(cc3[C@@H](O)C3COC(=O)C32)OCO4)cc(OC)c1O (some centres not stated) .
[A] 0

[Q] Tell me the recorded outcome of this test for CCN(CC)C(=O)N1CCN(C)CC1 .
[A] 0

[Q] Tell me the recorded outcome of this test for C=CCCCCCCCCCCCc1ccco1 .
[A] 1

* * *

Could you please report measured normalized growth for the items listed next?
- Measurement Description: chemical genetic growth profiling, strain panel (AID 1159580);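 note: tested at 20 µM; growth read once vehicle control cultures reached saturation at 30 °C; 1 = growth at the plate median or of vehicle wells; lower values mean less growth of the strain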
- Condition Description: S. cerevisiae deletion strains, growth OD, locus YER002W, strain NOP16, active compounds read low
Among all 5,500 compounds or so, about 2,000 (36%) were called active. About 18% were inconclusive and are not listed. The list shows a part of the results.
Answers are plain numbers.

Study these solved cases before continuing.
Compound: CCCCCCCC/C=C\CCCCCCCC(=O)NCCc1ccc(O)c(O)c1
normalized growth: 1
--
Compound: CC#C[C@]1(O)CC[C@H]2[C@@H]3CCC4=CC(=O)CCC4=C3[C@@H](c3ccc(N(C)C)cc3)C[C@@]21C
normalized growth: 1
--
Compound: CC(C)NC[C@H](O)COc1cccc2[nH]ccc12
normalized growth: 0.969
--
Compound: CNC(=O)[C@H]1O[C@@H](n2cnc3c(NCc4cccc(I)c4)ncnc32)C(O)[C@H]1O (stereo not given in full)
normalized growth: 0.993
--
Compound: O=c1[nH]c(=O)c2nc3ccccc3nc2[nH]1
normalized growth: 1
--
Compound: CCCCCCN(CCCCCC)C(=O)Cc1c(-c2ccc(F)cc2)[nH]c2ccccc12
normalized growth: 1.02

Value sought for every listed compound: normalized growth.
1. CNCC[C@@H](Oc1ccc(C(F)(F)F)cc1)c1ccccc1
2. CC(C)(C)NCC(O)COc1cccc2[nH]c(=O)[nH]c12 (stereo not given)
3. NC(Cc1cccc(-c2ccccc2CP(=O)(O)O)c1)C(=O)O (stereo not given)
4. CN(C)CCCC1(c2ccc(F)cc2)OCc2cc(C#N)ccc21 (stereo not given)

[A]
0.993
1.02
1.02
0.994

* * *

Could you please report measured normalized growth for the items listed next?
- Measurement Description: chemical genetic growth profiling, strain panel (AID 1159580);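 note: tested at 20 µM; growth read once vehicle control cultures reached saturation at 30 °C; 1 = growth at the plate median or of vehicle wells; lower values mean less growth of the strain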
- Condition Description: S. cerevisiae deletion strains, growth OD, locus YJL164C, strain tpk1, active compounds read low
Out of some 5,500 compounds screened, about 2,000 (36%) were called active. Inconclusive results (about 18%) are left out. This is one part of the list.

Compound: C=C1CCC2[C@](C)(CO)[C@H](O)CC[C@@]2(C)[C@@H]1C/C=C1/C(=O)OC[C@H]1O (stereo not given in full)
normalized growth: 1.01 (inactive)
//
Compound: CC[C@@H](C(=O)C(C)[C@@H](O)[C@H](C)CCc1ccc(C)c(O)c1C(=O)O)C1OC(CC)(C2CC[C@](O)(CC)[C@H](C)O2)C[C@@H]1C (stereo not given in full)
normalized growth: 1.03 (inactive)
//
Compound: Cc1[nH]c2ccccc2c1CN(C)C
normalized growth: 1.01 (inactive)
//
Compound: COC(=O)/C=C/C(C)=C/C=C/C(C)=C/C=C/C=C(C)/C=C/C=C(C)/C=C/C(=O)O
normalized growth: 1.03 (inactive)

Attention now turns to another entry.
[Q] Reported normalized growth, compound Nc1ncn[nH]1 : ____
[A] 1 (inactive)

* * *

- Measurement Description: chemical genetic growth profiling, strain panel (AID 1159580);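 note: tested at 20 µM; growth read once vehicle control cultures reached saturation at 30 °C; 1 = growth at the plate median or of vehicle wells; lower values mean less growth of the strain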
- Condition Description: S. cerevisiae deletion strains, growth OD, locus YNL307C, strain MCK1, active compounds read low
Out of some 5,500 compounds screened, about 2,000 (36%) were called active. Inconclusive results (about 18%) are left out. The list shows a part of the results.
Metric: normalized growth
One number for each entry.

Study these solved cases before continuing.
Compound: CC(=O)Oc1cc(OC(C)=O)c2c(c1)O[C@H](c1ccc(OC(C)=O)c(OC(C)=O)c1)[C@@H](OC(C)=O)C2
normalized growth: 0.98

Compound: Cc1ncc(CNC(=O)N(CCCl)N=O)c(N)n1
normalized growth: 1

Compound: NS(=O)(=O)c1cc2c(cc1Cl)NC=NS2(=O)=O
normalized growth: 1.01

Compound: NCCC(O)C(=O)NC1CC(N)C(OC2OC(CN)C(O)C(O)C2N)C(OC2OC(CO)C(O)C2O)C1O (stereo not given)
normalized growth: 0.997

Compound: Nc1nc(=S)c2[nH]cnc2[nH]1
normalized growth: 1

Value sought for every listed compound: normalized growth.
1. CC(=O)O[C@H]1C[C@@H](OC(C)=O)C(C)(C)C2CC(=O)[C@]3(C)C(CC[C@@]4(C)[C@H](C(=O)O)OC(=O)C5OC543)[C@]21C (stereo not given in full)
2. CC(C)NCC(O)COc1cccc2[nH]ccc12 (stereo not given)
3. c1ccc2c(c1)sc1ccccc12
4. Cn1c(=O)c2c(ncn2CC(O)CO)n(C)c1=O (stereo not given)
5. COc1cc([C@@H]2c3cc4c(cc3C(OC3O[C@@H]5COC(C)O[C@H]5[C@H](O)[C@H]3O)C3COC(=O)[C@@H]32)OCO4)cc(OC)c1O (stereo not given in full)

[A]
1. 0.999
2. 0.982
3. 0.849
4. 0.983
5. 0.996
